List of cell viability values.
# Test system: MOLM14;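 further: after 48 h exposure read by CellTiter-Glo luminescence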
# procedure text: cell viability relative to vehicle control; higher = less cytotoxic
# conditions used: 10 µM; SRSF2 genotype: SRSF2 P95H/wt
Value expressed in %; do not type the unit.

Example molecules with recorded cell viability:
Recorded cell viability (molecule CC(C)c1cc(C(C)C)c(CC(=O)NS(=O)(=O)Oc2c(C(C)C)cccc2C(C)C)c(C(C)C)c1 ): 68.6

Recorded cell viability (molecule Cc1ccc(S(=O)(=O)C=CC#N)cc1 ): 0.28

Recorded cell viability (molecule COc1ccc(C2CNC(=O)C2)cc1OC1CCCC1 (centres undefined) ): 101

Now for another entry.
Recorded cell viability (molecule C[C@]12C=CC(=O)C=C1CC[C@@H]1[C@@H]2C(=O)C[C@@]2(C)[C@H]1CC[C@]2(O)C(=O)CO ): 108
